Target: T1, hu-CD200R1-iso4-Ref ECD (human)
T1 chain: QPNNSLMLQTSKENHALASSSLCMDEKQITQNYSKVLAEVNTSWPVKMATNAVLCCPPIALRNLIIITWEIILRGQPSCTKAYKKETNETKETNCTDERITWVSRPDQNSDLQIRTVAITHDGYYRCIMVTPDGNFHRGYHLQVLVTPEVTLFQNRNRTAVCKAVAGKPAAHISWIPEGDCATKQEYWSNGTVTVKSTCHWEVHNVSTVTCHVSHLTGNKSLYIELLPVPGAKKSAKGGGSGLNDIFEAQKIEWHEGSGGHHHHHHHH
Experiment: SPR Biacore 8K 37C; antibody on Protein A chip, CD200R1 analyte;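 also: sensorgrams corrected by subtracting reference and buffer signals, then analysed with Biacore 8K Evaluation Software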
MEASURED_ENDPOINT: Kd (nM)
Please reply with the bare figure in nM and do not write the unit itself.

Just so you know, measured Kd for h10F6.V4 (antibody, IgG1, V domains shown, IgG1 variant of h10F6) VH: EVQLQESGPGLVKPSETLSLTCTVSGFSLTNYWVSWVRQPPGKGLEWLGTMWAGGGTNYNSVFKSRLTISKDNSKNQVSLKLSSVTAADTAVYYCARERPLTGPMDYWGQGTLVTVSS VL: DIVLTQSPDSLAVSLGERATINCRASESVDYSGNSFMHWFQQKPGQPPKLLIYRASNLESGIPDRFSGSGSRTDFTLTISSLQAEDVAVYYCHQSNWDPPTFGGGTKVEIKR came out at 8.93

Just so you know, measured Kd for h10F6.V3 (antibody, IgG1, V domains shown, IgG1 variant of h10F6) VH: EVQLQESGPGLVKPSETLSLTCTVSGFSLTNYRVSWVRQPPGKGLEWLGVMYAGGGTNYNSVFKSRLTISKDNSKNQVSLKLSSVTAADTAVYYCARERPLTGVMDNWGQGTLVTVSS VL: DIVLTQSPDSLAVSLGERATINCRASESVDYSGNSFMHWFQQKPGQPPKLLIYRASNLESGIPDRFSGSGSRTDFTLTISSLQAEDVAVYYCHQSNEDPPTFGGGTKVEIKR came out at 0.817

Just so you know, measured Kd for h10F6.V1 (antibody, IgG1, V domains shown, differs by 3 residues in the heavy chain CDRs and 1 in the light chain CDRs; also called surrogate antibody) VH: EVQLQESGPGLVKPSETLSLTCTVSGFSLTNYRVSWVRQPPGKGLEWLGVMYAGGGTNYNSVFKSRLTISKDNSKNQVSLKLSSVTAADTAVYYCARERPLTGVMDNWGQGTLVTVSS VL: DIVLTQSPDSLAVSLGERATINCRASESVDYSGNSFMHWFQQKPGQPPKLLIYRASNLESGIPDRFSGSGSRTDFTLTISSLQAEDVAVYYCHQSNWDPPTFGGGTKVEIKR came out at 0.716

Just so you know, measured Kd for h10F6.V2 (antibody, IgG1, V domains shown, IgG1 variant of h10F6) VH: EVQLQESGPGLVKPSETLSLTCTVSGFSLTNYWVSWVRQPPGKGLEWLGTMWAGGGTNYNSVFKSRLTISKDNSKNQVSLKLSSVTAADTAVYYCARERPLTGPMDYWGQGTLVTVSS VL: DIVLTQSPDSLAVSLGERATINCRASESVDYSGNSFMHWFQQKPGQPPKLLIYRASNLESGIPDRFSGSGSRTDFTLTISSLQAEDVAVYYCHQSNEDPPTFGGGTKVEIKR came out at 6.04
